Recorded values, source ChEMBL document CHEMBL1151605.

molecular target: Human immunodeficiency virus type 1 reverse transcriptase (Human immunodeficiency virus 1, UniProt Q72547, K103N); experiment: Inhibitory activity against K103N mutant of HIV-1 reverse transcriptase
MEASURED_QUANTITY: IC50 (nM)
Numbers only; they are read as nM.

Query block: Dear colleague, please send me the reported IC50 for `O=S(=O)(c1ccccc1)c1c(C2=NCCS2)[nH]c2ccc(Cl)cc12` when you can.
Result block: 1250

Query block: Dear colleague, please send me the reported IC50 for `Cc1nc(-c2[nH]c3ccc(Cl)cc3c2S(=O)(=O)c2ccccc2)[nH]c1C` when you can.
Result block: 22
